Tested on: SF-539 CNS
Assay: NCI tumour cell line growth inhibition, 48 h; in the data active means GI50 below about 0.43 µM; inactive means the rest
I would appreciate it if you answered using one of these outcomes: active, inactive

Query :: In this assay, the call recorded for O=C(O)C1C(C(=O)O)C2(Cl)C(Cl)=C(Cl)C1(Cl)C2(Cl)Cl.[Cd] (stereo not given) was what?
Result :: inactive

----------
Test system: CAKI-1 renal
Experiment: NCI tumour cell line growth inhibition, 48 h
endpoint: TGI

Consider the following illustrative entries.
O=C1/C(=C\c2cccc(Oc3ccccc3)c2)SC(c2ccccc2)N1c1cccc([N+](=O)[O-])c1 (stereo not given)    > 100 µM
COC(=O)C(NC(=O)CSc1nnc(COc2ccc(Cl)cc2)n1-c1ccccc1)C(C)C (stereo not given)    25.1 µM
COC(=O)C1(F)C(=O)NC(=O)NC1OC (stereo not given)    > 100 µM
Cc1ccc(S(=O)(=O)N/N=C2\C3CC4CC(C3)C2C4)cc1 (stereo not given)    > 100 µM

Now examine the next entry.
Query :: I'm curious: which TGI was measured for COc1cc2cc(C(=O)N3CC(CCl)c4c3cc([N+](C)(C)Cc3ccc([N+](=O)[O-])n3C)c3ccccc43)[nH]c2c(OC)c1OC (stereo not given) tested on CAKI-1 renal?
Result :: > 19.9 µM
